Data provenance: PubChem BioAssay

# Experimental system: Dihydroorotate dehydrogenase (quinone), mitochondrial (Plasmodium falciparum (isolate 3D7)) (UniProt Q08210)
# Sequence (Q08210 whole entry, looked up): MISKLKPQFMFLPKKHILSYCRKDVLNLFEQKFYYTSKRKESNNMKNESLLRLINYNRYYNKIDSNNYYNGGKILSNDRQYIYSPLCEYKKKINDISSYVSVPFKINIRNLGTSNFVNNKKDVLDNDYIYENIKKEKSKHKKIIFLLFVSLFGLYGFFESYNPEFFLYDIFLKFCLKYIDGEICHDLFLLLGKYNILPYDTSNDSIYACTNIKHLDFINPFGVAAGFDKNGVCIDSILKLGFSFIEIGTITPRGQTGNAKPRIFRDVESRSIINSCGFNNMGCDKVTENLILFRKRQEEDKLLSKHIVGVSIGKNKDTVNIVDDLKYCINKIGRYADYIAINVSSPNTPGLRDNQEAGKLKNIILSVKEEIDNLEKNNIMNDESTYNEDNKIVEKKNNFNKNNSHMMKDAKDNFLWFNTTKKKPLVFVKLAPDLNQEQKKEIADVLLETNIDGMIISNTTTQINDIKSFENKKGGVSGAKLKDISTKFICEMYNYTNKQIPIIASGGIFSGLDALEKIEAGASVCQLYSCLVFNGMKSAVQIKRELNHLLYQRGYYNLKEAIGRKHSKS
# Assay overview: PfDHODH enzyme inhibitors, primary screen, biochemical, C-terminal His tag, absorbance 600 nm (AID 1175);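 further: recombinant parasite enzyme with a five histidine tag at its C terminus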
# Study conditions: DCIP absorbance 600 nm, higher = more signal, called active from +8 up or from −8 down
Each entry gets Not satisfied if its composite z-score stays under 0.02, and Satisfied if its composite z-score is 0.02 or above.

Observe how each entry below is paired with its result.
CCC[C@@H]1[C@@H](Sc2ccccc2)[C@@H](C(=O)O)[C@H](c2ccc(C)cc2)N1S(=O)(=O)c1ccc(C)cc1 ... Not satisfied
O=C1NC(=O)C2C1C=CC(C(O)c1cccc(O)c1)N2Nc1ccc(Cl)cc1Cl (stereo not given) ... Satisfied
C=CCC(OC(C)=O)[C@@H]1[C@@H](N(Cc2ccc(-c3ccccc3)cc2)C(=O)c2cccc3ccccc23)c2cc(OCCCO)ccc2N1C(=O)c1ccc2ccccc2c1 (stereo not given in full) ... Not satisfied

## Input Say whether CC(C)c1ccc(NN2C(C(O)C(C)C)C=CC3C(=O)N(c4ccccc4)C(=O)C32)cc1 (stereo not given) shows composite z-score of 0.02 or more.
## Output Satisfied

## Input Say whether "C=CCNC(=O)[C@@H]1[C@H]2C(=O)O[C@H](c3ccccc3)[C@H](c3ccccc3)N2[C@H](c2ccccc2OCCO)[C@@]12C(=O)N(C(=O)OCCOC)c1ccc(C#CCCO)cc12" shows composite z-score of 0.02 or more.
## Output Not satisfied

## Input Say whether CCCCC(O)C1C=CC2C(=O)N(C)C(=O)C2N1Nc1ccccc1 (stereo not given) shows composite z-score of 0.02 or more.
## Output Satisfied

## Input Say whether "NCCCC[C@@H]1NC(=O)[C@H]2C[C@@H](C(=O)O)[C@@H](c3cccc(OCCO)c3)N2C1=O" shows composite z-score of 0.02 or more.
## Output Not satisfied

## Input Say whether "COCCOC(=O)N1C(=O)[C@@]2(c3cc(C#CCC(C(=O)OC)C(=O)OC)ccc31)[C@H](C(N)=O)[C@H]1C(=O)O[C@H](c3ccccc3)[C@H](c3ccccc3)N1[C@@H]2c1ccc(OCCO)cc1" shows composite z-score of 0.02 or more.
## Output Not satisfied

## Input Say whether CCCCCCCCCCC(O)C1C=CC2C(=O)N(C)C(=O)C2N1N1CCCCC1 (stereo not given) shows composite z-score of 0.02 or more.
## Output Satisfied

====

# Tested on: XIP peptide (Xip251-270)
# Assay overview: small-molecule binders of XIP peptide, primary screen, biochemical, small-molecule microarray, fluorescence 635/667 nm, 0.5 µg/mL protein (AID 1183)
# Study conditions: small-molecule microarray binding, fluorescence 635 nm; higher = more signal
composite z-score values for the molecules below.
Answer field: number only, no words.

Example results:
CN(C)C(=O)[C@]1(Cc2ccccc2)N=C(c2ccc(OCCCO)cc2)O[C@@H]1c1ccccc1 ... 0.851
Cc1ccc(S[C@]2(C(=O)NCC(F)(F)F)CC(=O)N(C3CCCCC3)[C@@H]2c2ccc(CO)cc2)cc1 ... 0.201

Here's the next entry for you.
## Input Provide measured composite z-score value, entry: CCCCCN1CC=CC23O[C@@H]4C=CCOC(=O)[C@@H]4[C@H]2C(=O)N(CCCCCO)[C@@H]3C1=O (stereo partly drawn)
## Output -0.228

====

# Assay overview: fission yeast growth modulation, primary screen, strain 972, OD600, 24 h, no modulator (AID 1090);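 further: basal condition with compound alone and no growth modifier present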
# Study conditions: S. pombe 972 growth, higher = more signal, called active from +8 up or from −8 down
z-score values for the compounds below.
Answer field: number only, no words.

CCOC(=O)C[C@H]1[C@H](OC(=O)c2ccc(C(=O)c3ccccc3)cc2)[C@@H](NC(=O)c2ccc3ccccc3c2)c2cc(OCCCO)ccc2N1C(=O)c1ccc2ccccc2n1 ... -0.629
COc1ccc(C(O)C2C=CC3C(=O)N(C)C(=O)C3N2Nc2ccc([N+](=O)[O-])cc2[N+](=O)[O-])cc1OCc1ccccc1 (centres undefined) ... 1.01

## Input Provide measured z-score value, entry: CC[C@H](C)C(=O)O[C@H]1CC[C@]2(C)C3=C(CCC2C1(C)C)[C@]1(C)CC[C@H]([C@H](C)CCCC(C)C)[C@@]1(C)CC3 (some centres undefined)
## Output 0.14

## Input Provide measured z-score value, entry: "C=CCNC(=O)[C@@H]1[C@H]2C(=O)O[C@H](c3ccccc3)[C@H](c3ccccc3)N2[C@H](c2ccc(O)cc2)[C@@]12C(=O)Nc1ccc(C#CC3(O)CCCCCC3)cc12"
## Output 0.0674

====

# Experimental system: NADPH oxidase 5 (Homo sapiens)
# Assay overview: NOX5-dependent H2O2 signal modulators, primary screen, NOX inhibitor project, cell-based, HEK293-NOX5, Amplex Red fluorescence (AID 1161)
# Study conditions: HEK293-NOX5, ionomycin, 45 min, higher = more signal
Each entry gets class 0 if its z-score stays under 0.2, and class 1 if its z-score is 0.2 or above.

Observe how each entry below is paired with its result.
CCCC[C@@H]1C[C@H]1[C@@H](NC(=O)Cc1ccccc1)c1ccc(Cl)cc1 ... class 1
C=CC[C@]1(C(=O)N(C)C)COC(c2ccc(OCCCO)cc2)=N1 ... class 0
CCOC(=O)C[C@H]1[C@H](OC(=O)c2cc3ccccc3oc2=O)[C@@H](NC(=O)C2CCCCC2)c2cc(OCCCO)ccc2N1C(=O)Cc1ccc(OC)cc1 ... class 1
C=CCC(OC(C)=O)[C@@H]1[C@@H](N(Cc2ccc(-c3cccc(C(F)(F)F)c3)o2)C(=O)Cc2ccc(OC)cc2)c2cc(OCCCO)ccc2N1C(=O)c1ccc2ccccc2n1 (stereo partly drawn) ... class 0
CCC[C@@H]1C=C(C(=O)OCC)[C@H](c2ccccc2)N1S(=O)(=O)c1ccc(C)cc1 ... class 0
NC(=O)NCC#Cc1ccc2c(c1)[C@]1(C(=O)N2)[C@H](C(=O)Nc2nc3ccccc3s2)[C@H]2C(=O)O[C@H](c3ccccc3)[C@H](c3ccccc3)N2[C@@H]1c1ccc(OCCO)cc1 ... class 1

## Input Say whether "COCCCN1C(=O)[C@@]2(Cc3ccccc31)c1ccccc1C(=O)N(Cc1ccccc1OC)[C@H]2c1ccc(CO)cc1" shows z-score of 0.2 or more.
## Output class 1

## Input Say whether "COc1cccc(C[C@H]2C[C@@H](CO[Si](C(C)C)(C(C)C)C(C)C)N3C(=O)[C@@]4(C(C)=O)O[C@@]23[C@@H]2C(=O)N(C)C(=O)[C@@H]24)c1" shows z-score of 0.2 or more.
## Output class 0

====

# Assay overview: small-molecule microarray binders of probe aShh, primary screen, biochemical, biotinylated probe, 635/667 nm fluorescence (AID 1114);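 further: probe is biotin-labelled aShh protein from a stem cell growth factor screen; measures binding of labelled protein to compounds printed on the slide; score merges feature fluorescence at 667 nm with signal-to-noise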
# Study conditions: higher = more signal
Property: composite z-score
Answer field: number only, no words.

C=CC[C@@]1(C(=O)N(C)C)N=C(c2ccc(OCCCO)cc2)O[C@@H]1c1ccccc1 ... 0.246

## Input Provide measured composite z-score value, entry: "C=CCNC(=O)[C@@H]1[C@H]2C(=O)O[C@H](c3ccccc3)[C@H](c3ccccc3)N2[C@H](c2ccccc2OCCO)[C@@]12C(=O)N(C(=O)OCCOC)c1ccc(C#CCCO)cc12"
## Output 0.131

====

composite z-score values for the molecules below.
# Assay overview: small-molecule microarray binders of probe aShh, primary screen, biochemical, biotinylated probe, 635/667 nm fluorescence (AID 1114);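 further: probe is biotin-labelled aShh protein from a stem cell growth factor screen; measures binding of labelled protein to compounds printed on the slide; score merges feature fluorescence at 667 nm with signal-to-noise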
# Study conditions: higher = more signal

Example results:
COC(=O)[C@@]1(Cc2ccccc2)[C@H]2c3cc(C(=O)N4CCCC4)n(Cc4ccc(C(F)(F)F)nc4)c3C[C@H]2CN1C(=O)c1ccccc1 ... 1.36
CC(C)[Si](C#CCCCC#N)(O[C@H](c1ccccc1)c1cn([C@H](C)c2ccccc2)nn1)C(C)C ... 0.318
CN(C)C(=O)[C@]1(Cc2ccccc2CN=[N+]=[N-])N=C(c2ccc(OCCCO)cc2)O[C@@H]1c1ccccc1N=[N+]=[N-] ... 0.0639

## Input Provide measured composite z-score value, entry: "CCOC(=O)C[C@H]1[C@H](OC(=O)c2cc3ccccc3oc2=O)[C@@H](NC(=O)C2CCCCC2)c2cc(OCCCO)ccc2N1C(=O)Cc1ccc(OC)cc1"
## Output 0.42
